Biological target: TACR1 (Homo sapiens)
Construct: purchased Promega (in-house HiBiT-GPCR construct library, NanoBRET)
Sequence (P25103 whole entry): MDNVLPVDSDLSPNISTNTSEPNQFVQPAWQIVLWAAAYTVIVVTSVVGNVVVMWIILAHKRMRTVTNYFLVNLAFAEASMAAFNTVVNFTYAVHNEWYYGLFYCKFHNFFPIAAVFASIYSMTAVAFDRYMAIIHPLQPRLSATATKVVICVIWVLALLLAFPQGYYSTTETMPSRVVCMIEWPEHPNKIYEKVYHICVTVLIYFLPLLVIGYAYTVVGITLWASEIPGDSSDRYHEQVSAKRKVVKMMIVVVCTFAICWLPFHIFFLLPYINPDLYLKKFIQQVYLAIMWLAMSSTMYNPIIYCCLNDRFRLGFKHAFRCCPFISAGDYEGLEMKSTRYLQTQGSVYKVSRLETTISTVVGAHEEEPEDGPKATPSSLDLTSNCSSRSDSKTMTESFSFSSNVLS
Assay: NanoBRET screen HiBiT-TACR1 in HEK293
Type: binding
Conditions: TACR1; tracer 1μM
This listing pairs molecules with measured NanoBRET Fold Response.
metric: NanoBRET Fold Response

molecule	assay-target	metric	recorded-value
CC(C)N(CC[C@H](c1ccccc1)c1cc(CCNC(=O)CCOCCOCCOCCOCCNC(=O)CCc2ccc3n2[B-](F)(F)[N+]2=C(c4ccc[nH]4)C=CC2=C3)ccc1O)C(C)C	TACR1 (Homo sapiens)	NanoBRET Fold Response	1.01
COc1ccccc1N1CCN(CCCCN2C(=O)c3ccc(CNC(=O)CCOCCNC(=O)c4ccc(CNC(=O)CCc5ccc6n5[B-](F)(F)[N+]5=C(c7ccc[nH]7)C=CC5=C6)cc4)cc3C2=O)CC1	TACR1 (Homo sapiens)	NanoBRET Fold Response	1.11
O=C(CCc1ccc2n1[B-](F)(F)[N+]1=C(c3ccc[nH]3)C=CC1=C2)NCCOCCOCCNC(=O)OCCOCCN1CCN(C2=Nc3ccccc3Sc3ccccc32)CC1	TACR1 (Homo sapiens)	NanoBRET Fold Response	0.83
O=C(CCOCCOCCOCCOCCNC(=O)CCc1ccc2n1[B-](F)(F)[N+]1=C(c3ccc[nH]3)C=CC1=C2)NCCCN1CCN(C2=Nc3ccccc3Oc3ccc(Cl)cc32)CC1	TACR1 (Homo sapiens)	NanoBRET Fold Response	1.12
N#CN=C(NCCCOc1cccc(CN2CCCCC2)c1)NCCNC(=O)CCOCCOCCOCCOCCNC(=O)CCc1ccc2n1[B-](F)(F)[N+]1=C(c3ccc[nH]3)C=CC1=C2	TACR1 (Homo sapiens)	NanoBRET Fold Response	1.02
CC(C)N(CC[C@H](c1ccccc1)c1cc(CCNC(=O)c2ccc(CNC(=O)CCc3ccc4n3[B-](F)(F)[N+]3=C(c5ccc[nH]5)C=CC3=C4)cc2)ccc1O)C(C)C	TACR1 (Homo sapiens)	NanoBRET Fold Response	1.01
Cc1cc2c(s1)Nc1ccccc1N=C2N1CCN(CCCNC(=O)CCOCCOCCOCCOCCNC(=O)CCc2ccc3n2[B-](F)(F)[N+]2=C(c4ccc[nH]4)C=CC2=C3)CC1	TACR1 (Homo sapiens)	NanoBRET Fold Response	0.92
O=C(CCc1ccc2n1[B-](F)(F)[N+]1=C(c3ccc[nH]3)C=CC1=C2)NCc1ccc(C(=O)NCCOCCC(=O)N[C@@H]2CC[C@@]3(O)[C@H]4Cc5ccc(O)c6c5[C@@]3(CCN4CC3CC3)[C@H]2O6)cc1 [Naltrexone-3-NB590]	TACR1 (Homo sapiens)	NanoBRET Fold Response	0.90
Cc1nc2n(c(=O)c1CCN1CCC(c3noc4cc(F)ccc34)CC1)CCCC2OC(=O)NCCOCCOCCOCCOCCNC(=O)CCc1ccc2n1[B-](F)(F)[N+]1=C(c3ccc[nH]3)C=CC1=C2 (stereo not drawn)	TACR1 (Homo sapiens)	NanoBRET Fold Response	0.95

###

NanoBRET Fold Response for assorted molecules
Biological target: LGR6 (Homo sapiens)
Construct: purchased Promega (in-house HiBiT-GPCR construct library, NanoBRET)
Sequence (Q9HBX8 25-967): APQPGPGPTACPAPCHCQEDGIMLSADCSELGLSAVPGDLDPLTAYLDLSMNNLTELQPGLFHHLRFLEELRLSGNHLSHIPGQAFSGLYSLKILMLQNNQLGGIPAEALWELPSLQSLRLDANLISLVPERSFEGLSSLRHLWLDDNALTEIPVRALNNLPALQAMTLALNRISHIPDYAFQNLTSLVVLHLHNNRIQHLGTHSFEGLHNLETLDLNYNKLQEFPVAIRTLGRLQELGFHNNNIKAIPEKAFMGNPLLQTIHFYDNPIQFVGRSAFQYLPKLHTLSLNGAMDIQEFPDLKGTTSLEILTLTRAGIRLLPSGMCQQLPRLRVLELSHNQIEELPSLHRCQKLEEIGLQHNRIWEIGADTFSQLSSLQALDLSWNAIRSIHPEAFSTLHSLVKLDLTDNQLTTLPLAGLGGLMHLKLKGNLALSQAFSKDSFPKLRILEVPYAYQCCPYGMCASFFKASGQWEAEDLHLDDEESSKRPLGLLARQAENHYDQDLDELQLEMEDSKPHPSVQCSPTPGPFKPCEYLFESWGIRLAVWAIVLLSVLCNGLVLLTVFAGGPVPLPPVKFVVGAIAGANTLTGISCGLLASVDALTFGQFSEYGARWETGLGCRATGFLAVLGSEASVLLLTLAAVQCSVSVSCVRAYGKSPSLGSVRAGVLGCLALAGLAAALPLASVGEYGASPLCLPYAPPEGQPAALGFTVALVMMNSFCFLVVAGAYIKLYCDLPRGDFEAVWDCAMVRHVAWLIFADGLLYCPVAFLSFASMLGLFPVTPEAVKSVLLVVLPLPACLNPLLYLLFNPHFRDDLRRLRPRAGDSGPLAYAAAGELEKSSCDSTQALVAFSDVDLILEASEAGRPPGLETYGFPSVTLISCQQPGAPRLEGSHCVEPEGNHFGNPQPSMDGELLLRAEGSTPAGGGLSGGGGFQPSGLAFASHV
Test: NanoBRET screen HiBiT-LGR6 in HEK293
Assay type: binding
Conditions: LGR6; tracer 1μM

molecule	NanoBRET Fold Response
O=C(CCOCCOCCOCCOCCNC(=O)CCc1ccc2n1[B-](F)(F)[N+]1=C(c3ccc[nH]3)C=CC1=C2)NCCCN1CCN(C2=Nc3ccccc3Oc3ccc(Cl)cc32)CC1 [Loxapine-a-2-NB590]	1.25
COc1ccccc1N1CCN(CCCCN2C(=O)c3ccc(CNC(=O)CCOCCNC(=O)c4ccc(CNC(=O)CCc5ccc6n5[B-](F)(F)[N+]5=C(c7ccc[nH]7)C=CC5=C6)cc4)cc3C2=O)CC1 [NAN-190-3-NB590]	0.60
N#CN=C(NCCCOc1cccc(CN2CCCCC2)c1)NCCNC(=O)CCOCCOCCOCCOCCNC(=O)CCc1ccc2n1[B-](F)(F)[N+]1=C(c3ccc[nH]3)C=CC1=C2 [Aminopotentidine-2-NB590]	0.88
O=C(CCc1ccc2n1[B-](F)(F)[N+]1=C(c3ccc[nH]3)C=CC1=C2)NCCOCCOCCNC(=O)OCCOCCN1CCN(C2=Nc3ccccc3Sc3ccccc32)CC1 [Quetiapine-a-2-NB590]	0.96
CC(C)N(CC[C@H](c1ccccc1)c1cc(CCNC(=O)CCOCCOCCOCCOCCNC(=O)CCc2ccc3n2[B-](F)(F)[N+]2=C(c4ccc[nH]4)C=CC2=C3)ccc1O)C(C)C [Tolterodine-2-NB590]	1.36
Cc1cc2c(s1)Nc1ccccc1N=C2N1CCN(CCCNC(=O)CCOCCOCCOCCOCCNC(=O)CCc2ccc3n2[B-](F)(F)[N+]2=C(c4ccc[nH]4)C=CC2=C3)CC1 [Olanzapine-a-2-NB590]	1.22
Cc1nc2n(c(=O)c1CCN1CCC(c3noc4cc(F)ccc34)CC1)CCCC2OC(=O)NCCOCCOCCOCCOCCNC(=O)CCc1ccc2n1[B-](F)(F)[N+]1=C(c3ccc[nH]3)C=CC1=C2 (stereo not shown) [Risperidone-2-NB590]	1.02
CC(C)N(CC[C@H](c1ccccc1)c1cc(CCNC(=O)c2ccc(CNC(=O)CCc3ccc4n3[B-](F)(F)[N+]3=C(c5ccc[nH]5)C=CC3=C4)cc2)ccc1O)C(C)C [Tolterodine-BZ-NB590]	0.94
CCCn1c(=O)c2[nH]c(-c3ccc(OCC(=O)NCCNC(=O)CCOCCNC(=O)c4ccc(CNC(=O)CCc5ccc6n5[B-](F)(F)[N+]5=C(c7ccc[nH]7)C=CC5=C6)cc4)cc3)nc2n(CCC)c1=O [XAC-3-NB590]	0.90
O=C(CCc1ccc2n1[B-](F)(F)[N+]1=C(c3ccc[nH]3)C=CC1=C2)NCc1ccc(C(=O)NCCOCCC(=O)N[C@@H]2CC[C@@]3(O)[C@H]4Cc5ccc(O)c6c5[C@@]3(CCN4CC3CC3)[C@H]2O6)cc1 [Naltrexone-3-NB590]	0.79

Data origin, for the record: paper PMC8151276
